# Assay Comment: Gravimetric solubility measurement in solvents
# Type: physicochemical
# Condition Description: organic solvent or mixture, thermodynamic from solid; Toluene; 15° C.; slurried 3 days; read-out: Solubility at 15° C.
Observable: solubility at 3 days (µg/mL)
Respond numerically; units are µg/mL and should not be typed.

Assign solubility at 3 days to the following record: CC(C)(C)c1[nH]cnc1/C=c1\[nH]c(=O)/c(=C/c2ccccc2)[nH]c1=O [plinabulin monohydrate]
1000

====

# Assay Comment: Gravimetric solubility measurement in solvents
# Format: physicochemical
# Condition Description: organic solvent or mixture, thermodynamic from solid; MEK; 45° C.; slurried 3 days; read-out: Solubility at 45° C.
Observable: solubility at 3 days (mg/mL)
Respond numerically; units are mg/mL and should not be typed.

Assign solubility at 3 days to the following record: CC(C)(C)c1[nH]cnc1/C=c1\[nH]c(=O)/c(=C/c2ccccc2)[nH]c1=O [plinabulin monohydrate]
23
